From: patent US20230322789A1

Target: HPK1 (Homo sapiens (Human), UniProt Q92918)
Sequence (Q92918 whole entry): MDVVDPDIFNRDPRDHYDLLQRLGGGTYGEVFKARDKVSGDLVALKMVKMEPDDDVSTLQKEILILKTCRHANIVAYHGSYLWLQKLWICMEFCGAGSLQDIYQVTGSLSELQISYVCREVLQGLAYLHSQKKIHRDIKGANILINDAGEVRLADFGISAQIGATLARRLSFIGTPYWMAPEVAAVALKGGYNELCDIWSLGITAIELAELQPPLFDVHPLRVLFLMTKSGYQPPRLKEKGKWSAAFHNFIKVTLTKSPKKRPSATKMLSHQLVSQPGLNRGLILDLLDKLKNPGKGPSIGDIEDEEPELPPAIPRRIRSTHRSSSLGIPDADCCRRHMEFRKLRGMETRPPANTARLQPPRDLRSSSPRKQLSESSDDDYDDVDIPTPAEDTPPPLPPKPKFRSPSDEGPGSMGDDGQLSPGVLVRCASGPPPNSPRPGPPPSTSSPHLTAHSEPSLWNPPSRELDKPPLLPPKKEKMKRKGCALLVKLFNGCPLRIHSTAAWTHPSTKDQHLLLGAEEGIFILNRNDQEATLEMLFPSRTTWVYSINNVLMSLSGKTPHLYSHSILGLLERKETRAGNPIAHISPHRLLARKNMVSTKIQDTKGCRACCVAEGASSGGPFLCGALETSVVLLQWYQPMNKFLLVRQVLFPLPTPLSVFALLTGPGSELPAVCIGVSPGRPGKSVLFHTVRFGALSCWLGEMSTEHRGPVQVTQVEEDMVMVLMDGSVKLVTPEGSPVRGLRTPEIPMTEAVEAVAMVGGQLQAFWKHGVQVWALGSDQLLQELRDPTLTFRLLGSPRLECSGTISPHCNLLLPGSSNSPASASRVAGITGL
Test: HPK1 kinase activity inhibition test (ADP-Glo, luminescence)
Format: biochemical
Conditions: HPK1 5 nM, ATP 2 μM, read-out: IC50, inhibitory effects of compounds on HPK1 kinase activity
pIC50: −log10 of the molar value. Where a name gives a salt, the structure may show the parent alone.
Measured pIC50 values are reported for all entries that follow.

Below are worked cases with known answers.
INSERT INTO assay_data (molecule, value_type, value_reported) VALUES
  ('Cc1cc(C#N)cc(F)c1-n1nc2c(-c3ccc4c(c3)CN(C(=O)C(C)O)CC4)n[nH]c2cc1=O (stereo not shown)', 'pIC50', '6.30 to 7.30'),
  ('Cc1cccc(F)c1-n1nc2c(-c3ccc4c(c3)CN(C(C)CO)CC4)n[nH]c2cc1=O (stereo not shown)', 'pIC50', '6.30 to 7.30');

Query :: Send back HPK1 (Homo sapiens (Human), UniProt Q92918) pIC50 of COc1cc(C#N)cc(F)c1-n1nc2c(-c3cccc(N4CC5CCC(C4)N5C)c3)n[nH]c2cc1=O only.
Result :: ≥ 7.30

Query :: Send back HPK1 (Homo sapiens (Human), UniProt Q92918) pIC50 of COc1cc(N2CCN(C)CC2)ccc1-c1n[nH]c2cc(=O)n(-c3c(C)cccc3F)nc12 only.
Result :: 5.70 to 6.30

Query :: Send back HPK1 (Homo sapiens (Human), UniProt Q92918) pIC50 of CN1CCN(c2ccc(-c3n[nH]c4cc(=O)n(-c5cccc6c5OCO6)nc34)cc2)CC1 only.
Result :: ≥ 7.30

Query :: Send back HPK1 (Homo sapiens (Human), UniProt Q92918) pIC50 of Cc1cccc(F)c1-n1nc2c(-c3ccc4c(c3)C(CN)N(C)CC4)n[nH]c2cc1=O (stereo not shown) [Compound 186, hydrochloride] only.
Result :: 5.70 to 6.30

Query :: Send back HPK1 (Homo sapiens (Human), UniProt Q92918) pIC50 of Cc1cc(C#N)cc(F)c1-n1nc2c(-c3ccc(N4CCN(C5CCOC5)CC4)cc3)n[nH]c2cc1=O (stereo not shown) only.
Result :: ≥ 7.30

Query :: Send back HPK1 (Homo sapiens (Human), UniProt Q92918) pIC50 of COc1cccc(F)c1-n1nc2c(-c3ccc(N4CCC(C)(N)CC4)cc3)n[nH]c2cc1=O only.
Result :: ≥ 7.30

Query :: Send back HPK1 (Homo sapiens (Human), UniProt Q92918) pIC50 of Cc1cc(C#N)cc(F)c1-n1nc2c(-c3ccc4c(c3)CN(C(=O)CO)CC4)n[nH]c2cc1=O only.
Result :: 6.30 to 7.30

Query :: Send back HPK1 (Homo sapiens (Human), UniProt Q92918) pIC50 of COc1cc(C#N)cc(F)c1-n1nc2c(-c3ccc(N4CCN(CCO)CC4)cc3)n[nH]c2cc1=O only.
Result :: ≥ 7.30

Query :: Send back HPK1 (Homo sapiens (Human), UniProt Q92918) pIC50 of Cc1cccc(F)c1-n1nc2c(-c3ccc4c(c3)C3COC(=O)N3CC4)n[nH]c2cc1=O (stereo not shown) only.
Result :: 5.70 to 6.30

Query :: Send back HPK1 (Homo sapiens (Human), UniProt Q92918) pIC50 of Cc1cc(-c2n[nH]c3cc(=O)n(-c4c(C)cccc4F)nc23)cc(C)c1N1CCN(C)CC1 only.
Result :: 6.30 to 7.30

----------
pIC50: −log10 of the molar value.
Quick record: pIC50, HPK1 (Homo sapiens (Human)).

Below are worked cases with known answers.
INSERT INTO measurements (compound, measurement_target, value_type, value_reported) VALUES
  ('CNCc1cc(-c2n[nH]c3cc(=O)n(-c4c(C)cccc4F)nc23)ccc1N1CCN(C)CC1', 'HPK1 (Homo sapiens (Human))', 'pIC50', '6.30 to 7.30'),
  ('CNC(=O)c1cc(F)c(-n2nc3c(-c4ccc(N5CCN(C)CC5)cc4)n[nH]c3cc2=O)c(OC)c1', 'HPK1 (Homo sapiens (Human))', 'pIC50', '≥ 7.30'),
  ('Cc1cccc(F)c1-n1nc2c(-c3ccc4c(c3)CN(C)C4)n[nH]c2cc1=O', 'HPK1 (Homo sapiens (Human))', 'pIC50', '≥ 7.30');

Would you kindly look at the next entry?
Query :: Send back HPK1 (Homo sapiens (Human)) pIC50 of Cc1cccc(F)c1-n1nc2c(-c3cccc(N4CCN(C)CC4)c3F)n[nH]c2cc1=O only.
Result :: 5.70 to 6.30

----------
Measured IC50 values are reported for all entries that follow.
Molecular target: UniProt Q92918
Where a name gives a salt, the structure may show the parent alone.

Below are worked cases with known answers.
INSERT INTO assay_data (compound, measurement_target, value_type, value_reported) VALUES
  ('COc1cccc(F)c1-n1nc2c(-c3cccc(N4CC5CCC(C4)N5C)c3)n[nH]c2cc1=O', 'UniProt Q92918', 'IC50', '≤ 50 nM'),
  ('Cc1cccc(F)c1-n1nc2c(-c3cnc4c(c3)CN(C)CC4)n[nH]c2cc1=O', 'UniProt Q92918', 'IC50', '50 to 500 nM'),
  ('Cc1cccc(F)c1-n1nc2c(-c3ccc4c(c3)CN(C3CCN(C)CC3)CC4)n[nH]c2cc1=O', 'UniProt Q92918', 'IC50', '50 to 500 nM');

Query :: Identify the reported IC50 for the following entry. COc1cccc(F)c1-n1nc2c(-c3ccc(N4CCN5CCOC[C@H]5C4)cc3)n[nH]c2cc1=O
Result :: ≤ 50 nM

Query :: Identify the reported IC50 for the following entry. COc1cccc(F)c1-n1nc2c(-c3ccc(N4CCN(C)C(CO)C4)cc3)n[nH]c2cc1=O (stereo not shown)
Result :: ≤ 50 nM

Query :: Identify the reported IC50 for the following entry. Cc1cccc(F)c1-n1nc2c(-c3ccc4c(c3)CNCC4)n[nH]c2cc1=O [Compound 161, hydrochloride]
Result :: ≤ 50 nM

Query :: Identify the reported IC50 for the following entry. Cc1cc(C#N)cc(F)c1-n1nc2c(-c3ccc(N4CCN(C)CC4)cc3)n[nH]c2cc1=O
Result :: ≤ 50 nM

Query :: Identify the reported IC50 for the following entry. COC[C@@H]1Cc2ccc(-c3n[nH]c4cc(=O)n(-c5c(C)cccc5F)nc34)cc2CN1C
Result :: ≤ 50 nM

----------
Tested on: Human Jurkat-E6-1 cells
Experiment: Measurement of IL-2 secretion of Jurkat cells by ELISA
Assay type: cell-based
Conditions: Homo sapiens, Jurkat E6.1; test compound 3.0 μM; anti-CD3/anti-CD28 stimulation 24 hours; read-out: Percentage of the amount of IL-2 secreted from compound treated/DMSO-treated cells
Value Type: activity at 3 µM (%)
Numbers only; they are read as %.

Below are worked cases with known answers.
INSERT INTO measurements (smiles_repr, measurement_target, value_reported) VALUES
  ('CCc1cccc(F)c1-n1nc2c(-c3ccc(N4CCN(CCO)CC4)cc3)n[nH]c2cc1=O', 'Human Jurkat-E6-1 cells', 703),
  ('Cc1cccc(F)c1-n1nc2c(-c3ccc4c(c3)CN(C)CC4)n[nH]c2cc1=O', 'Human Jurkat-E6-1 cells', 849),
  ('COc1cccc(F)c1-n1nc2c(-c3ccc4c(c3)CN(C)CC4)n[nH]c2cc1=O', 'Human Jurkat-E6-1 cells', 926);

Query :: Identify the reported activity at 3 µM for the following entry. COc1cc(-c2n[nH]c3cc(=O)n(-c4c(C)cccc4F)nc23)ccc1N1CCN(C)CC1
Result :: 255

----------
System: Human Jurkat-E6-1 cells
Assay: Measurement of IL-2 secretion of Jurkat cells by ELISA
Type: cell-based
Conditions: Homo sapiens, Jurkat E6.1; test compound 3.0 μM; anti-CD3/anti-CD28 stimulation 24 hours; read-out: Percentage of the amount of IL-2 secreted from compound treated/DMSO-treated cells
Response field class: enum, chosen by comparing activity at 3 µM against low group: < 300%; middle group: ≥ 300% and < 600%; high group: ≥ 600%

INSERT INTO measurements (compound, label_value) VALUES
  ('CCc1cccc(F)c1-n1nc2c(-c3cccc(N4CCN(C)CC4)c3)n[nH]c2cc1=O [Compound 200]', 'low group'),
  ('COc1cccc(F)c1-n1nc2c(-c3cnc(N4CCOCC4)nc3)n[nH]c2cc1=O [Compound 111]', 'middle group'),
  ('Cc1cccc(F)c1-n1nc2c(-c3ccc(N4CCN(C5CC5)CC4)cc3)n[nH]c2cc1=O [Compound 58]', 'low group');

Query :: Any idea which band COc1cc(C#N)cc(F)c1-n1nc2c(-c3ccc(N4CCN(C)CC4)cc3)n[nH]c2cc1=O [Compound 74] is in?
Result :: middle group

Query :: Any idea which band Cc1cccc(F)c1-n1nc2c(-c3ccc(N4CCN5CCOC[C@@H]5C4)cc3)n[nH]c2cc1=O [Compound 133] is in?
Result :: high group

Query :: Any idea which band Cc1cccc(F)c1-n1nc2c(-c3ccc4c(c3)CCN(C3CNC3)C4)n[nH]c2cc1=O [Compound 193] is in?
Result :: low group

Query :: Any idea which band Cc1cc(C#N)cc(F)c1-n1nc2c(-c3ccc4c(c3)CNCC4)n[nH]c2cc1=O [Compound 171] is in?
Result :: low group

Query :: Any idea which band Cc1cccc(F)c1-n1nc2c(-c3ccc4c(c3)CN3C(=O)OC[C@@H]3C4)n[nH]c2cc1=O [Compound 177] is in?
Result :: middle group
